- assay.remarks: Lipid-based nanoparticle formation (PdI, Z Ave)
- Type: physicochemical
- test.settings: lipid BAM-CDN particles
quantity: Z Ave (nm)
Return type: number; implicit unit nm.

Qu. Fill in the blank: the reported Z Ave (nm) of CCCCCCCCCCCCCCCC(=O)N[C@H](C(=O)N[C@@H](C)C(=O)Nc1ccc(CSP2(=O)OC[C@H]3O[C@@H](n4cnc5c(N)ncnc54)[C@H](F)[C@@H]3OP(=O)(O)OC[C@H]3O[C@@H](n4cnc5c(O)ncnc54)[C@H](F)[C@@H]3O2)cc1)C(C)C (stereo partly shown) is ____.
Ans. 152.4

Qu. Item under review: CCCCCCCCCCCCCCCC(=O)N[C@H](C(=O)N[C@@H](CCCNC(N)=O)C(=O)Nc1ccc(CSP2(=O)OC[C@H]3O[C@@H](n4cnc5c(N)ncnc54)[C@H](F)[C@@H]3OP(=O)(S)OC[C@H]3O[C@@H](n4cnc5c(O)ncnc54)[C@H](F)[C@@H]3O2)cc1)C(C)C (stereo partly shown) . Reported Z Ave (nm)?
Ans. 155.9

Qu. Can you share its Z Ave (nm)? I mean this molecule: CCCCCCCCCCCCCC(=O)OC(CCCCCCCCCCC)CC(=O)N[C@H](C(=O)N[C@@H](CCCNC(N)=O)C(=O)Nc1ccc(CSP2(=O)OC[C@H]3O[C@@H](n4cnc5c(N)ncnc54)[C@H](F)[C@@H]3OP(=O)(S)OC[C@H]3O[C@@H](n4cnc5c(O)ncnc54)[C@H](F)[C@@H]3O2)cc1)C(C)C (stereo partly shown)
Ans. 36.8

Qu. Name the reported Z Ave (nm) value associated with the molecule CCCCCCCC(=O)N[C@H](C(=O)N[C@@H](C)C(=O)Nc1ccc(CSP2(=O)OC[C@H]3O[C@@H](n4cnc5c(N)ncnc54)[C@H](F)[C@@H]3OP(=O)(S)OC[C@H]3O[C@@H](n4cnc5c(O)ncnc54)[C@H](F)[C@@H]3O2)cc1)C(C)C (stereo partly shown)
Ans. 168.9

###

- target.system: STING (Homo sapiens, UniProt Q86WV6, G230A/H232R/R293Q/R71H)
- Sequence (Q86WV6 whole entry R71H/G230A/H232R/R293Q): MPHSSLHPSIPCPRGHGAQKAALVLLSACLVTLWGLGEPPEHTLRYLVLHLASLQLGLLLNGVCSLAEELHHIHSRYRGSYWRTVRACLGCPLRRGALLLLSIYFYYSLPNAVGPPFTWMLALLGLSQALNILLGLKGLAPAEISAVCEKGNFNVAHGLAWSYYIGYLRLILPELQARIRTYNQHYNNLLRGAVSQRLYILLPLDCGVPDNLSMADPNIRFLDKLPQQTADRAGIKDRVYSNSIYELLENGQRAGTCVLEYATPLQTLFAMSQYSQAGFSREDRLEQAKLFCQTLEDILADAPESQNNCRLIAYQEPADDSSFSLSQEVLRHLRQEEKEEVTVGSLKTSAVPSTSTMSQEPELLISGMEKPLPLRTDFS
- assay.remarks: ISG54 (IRF pathway) reporter assay in THP1-Dual cells
- test.settings: 10 μM; THP1-Dual cells
Assign Fold ISG induction vs unstimulated @10 μM to each entry below.
The reply should be a number in fold, with the unit left off.

Qu. Param item = COC(=O)C1O[C@@H](Oc2ccc(CSP3(=O)OC[C@H]4O[C@@H](n5cnc6c(N)ncnc65)[C@H](F)[C@@H]4OP(=O)(O)OC[C@H]4O[C@@H](n5cnc6c(O)ncnc65)C[C@@H]4O3)cc2[N+](=O)[O-])C(OC(C)=O)C(OC(C)=O)[C@@H]1OC(C)=O (stereo partly shown) ; retrieve measured Fold ISG induction vs unstimulated @10 μM.
Ans. 6

Qu. # input compound: CC(C)[C@H](NC(=O)COCCOCCNC(=O)COCCOCCNC(=O)COCCOCCNC(=O)COCCOCCN)C(=O)N[C@H](C)C(=O)Nc1ccc(CSP2(=O)OC[C@H]3O[C@@H](n4cnc5c(N)ncnc54)[C@H](F)[C@@H]3OP(=O)(O)OC[C@H]3O[C@@H](n4cnc5c(O)ncnc54)C[C@@H]3O2)cc1 (stereo partly shown) ; wanted: its Fold ISG induction vs unstimulated @10 μM
Ans. 29

Qu. What measured Fold ISG induction vs unstimulated @10 μM goes with Nc1ncnc2c1ncn2[C@@H]1O[C@@H]2COP(=O)(S)O[C@H]3C[C@H](n4cnc5c(=O)[nH]cnc54)O[C@@H]3COP(=O)(O)O[C@H]2[C@H]1F (stereo partly shown) [CL797, reference compound] ?
Ans. 181

Qu. Reported Fold ISG induction vs unstimulated @10 μM, compound Nc1ncnc2c1ncn2[C@@H]1OC2COP(=O)(S)O[C@@H]3C(COP(=O)(O)O[C@H]2[C@H]1F)O[C@@H](n1cnc2c(=O)[nH]cnc21)[C@@H]3F (stereo partly shown) [CL845, reference compound] : ____
Ans. 227

###

- Test system: Type I IFNs
- assay.remarks: Whole-blood assay, type I IFN induction (HEK-Blue IFN-α/β-KO-STING readout)
- Type: cell-based, human
- test.settings: whole blood assay, type I IFN; read-out: EC50 (μM) IFN in WBA
quantity: EC50 (µM)
Give the quantity in µM, number only.

Qu. Please give the measured EC50 for this molecule: CCCCCCCCCCCCCCCC(=O)N[C@H](C(=O)N[C@@H](CCCNC(N)=O)C(=O)Nc1ccc(CSP2(=O)OC[C@H]3O[C@@H](n4cnc5c(N)ncnc54)[C@H](F)[C@@H]3OP(=O)(S)OC[C@H]3O[C@@H](n4cnc5c(O)ncnc54)[C@H](F)[C@@H]3O2)cc1)C(C)C (stereo partly shown) [CL853]
Ans. 0.14

###

- System: Type I IFNs
- assay.remarks: Whole-blood assay, type I IFN induction (HEK-Blue IFN-α/β-KO-STING readout)
- Type: cell-based, human
- test.settings: whole blood assay, type I IFN; read-out: EC50 (μM) IFN in WBA
Can you tell me log10 of EC50 for the items I'm about to list?
Short version: log10 scale, EC50, µM.

Qu. What does the data say about its log10 of EC50? Entry: CCCCCCCC(=O)N[C@H](C(=O)N[C@@H](C)C(=O)Nc1ccc(CSP2(=O)OC[C@H]3O[C@@H](n4cnc5c(N)ncnc54)[C@H](F)[C@@H]3OP(=O)(O)OC[C@H]3O[C@@H](n4cnc5c(O)ncnc54)C[C@@H]3O2)cc1)C(C)C (some centres unmarked)
Ans. 0.85

Qu. Can you share its log10 of EC50? I mean this compound: CCCCCCCC(=O)N[C@H](C(=O)N[C@@H](C)C(=O)Nc1ccc(CSP2(=O)OC[C@H]3O[C@@H](n4cnc5c(O)ncnc54)[C@H](F)[C@@H]3OP(=O)(SCc3ccc(NC(=O)[C@H](C)NC(=O)[C@@H](NC(=O)CCCCCCC)C(C)C)cc3)OC[C@H]3O[C@@H](n4cnc5c(N)ncnc54)[C@H](F)[C@@H]3O2)cc1)C(C)C (some centres unmarked)
Ans. 0.15

Qu. Which log10 of EC50 value is on record for CCCCCCCCCCCCCC(=O)OC(CCCCCCCCCCC)CC(=O)N[C@H](C(=O)N[C@@H](CCCNC(N)=O)C(=O)Nc1ccc(CSP2(=O)OC[C@H]3O[C@@H](n4cnc5c(N)ncnc54)[C@H](F)[C@@H]3OP(=O)(S)OC[C@H]3O[C@@H](n4cnc5c(O)ncnc54)[C@H](F)[C@@H]3O2)cc1)C(C)C (some centres unmarked) ?
Ans. -2.00

Qu. Fill in the blank: the reported log10 of EC50 of CCCCCCCC(=O)N[C@H](C(=O)N[C@@H](C)C(=O)Nc1ccc(CSP2(=O)OC[C@H]3O[C@@H](n4cnc5c(N)ncnc54)[C@H](F)[C@@H]3OP(=O)(O)OC[C@H]3O[C@@H](n4cnc5c(O)ncnc54)[C@H](F)[C@@H]3O2)cc1)C(C)C (some centres unmarked) is ____.
Ans. 0.48

Qu. Need log10 of EC50 of CCCCCCCCCCCCCC(=O)OC(CCCCCCCCCCC)CC(=O)N[C@H](C(=O)N[C@@H](CCCNC(N)=O)C(=O)Nc1ccc(CSP2(=O)OC[C@H]3O[C@@H](n4cnc5c(N)ncnc54)[C@H](F)[C@@H]3OP(=O)(O)OC[C@H]3O[C@@H](n4cnc5c(O)ncnc54)[C@H](F)[C@@H]3O2)cc1)C(C)C (some centres unmarked) , thanks.
Ans. -2.05

###

Give Z Ave (nm) for every item shown.
- assay.remarks: Lipid-based nanoparticle formation (PdI, Z Ave)
- Format: physicochemical
- test.settings: lipid BAM-CDN particles

Qu. I'd like to know its Z Ave (nm). The compound in question is CCCCCCCCCCCCCC(=O)OC(CCCCCCCCCCC)CC(=O)N[C@H](C(=O)N[C@@H](C)C(=O)Nc1ccc(CSP2(=O)OC[C@H]3O[C@@H](n4cnc5c(N)ncnc54)[C@H](F)[C@@H]3OP(=O)(O)OC[C@H]3O[C@@H](n4cnc5c(O)ncnc54)C[C@@H]3O2)cc1)C(C)C (stereo partly shown)
Ans. 91 nm

Qu. Report Z Ave (nm) for CCCCCCCC(=O)N[C@H](C(=O)N[C@@H](C)C(=O)Nc1ccc(CSP2(=O)OC[C@H]3O[C@@H](n4cnc5c(N)ncnc54)[C@H](F)[C@@H]3OP(=O)(O)OC[C@H]3O[C@@H](n4cnc5c(O)ncnc54)C[C@@H]3O2)cc1)C(C)C (stereo partly shown) please.
Ans. 54.9 nm

Qu. State the recorded Z Ave (nm) for this entry: CCCCCCCCCCCCCC(=O)OC(CCCCCCCCCCC)CC(=O)N[C@H](C(=O)N[C@@H](CCCNC(N)=O)C(=O)Nc1ccc(CSP2(=O)OC[C@H]3O[C@@H](n4cnc5c(N)ncnc54)[C@H](F)[C@@H]3OP(=O)(O)OC[C@H]3O[C@@H](n4cnc5c(O)ncnc54)[C@H](F)[C@@H]3O2)cc1)C(C)C (stereo partly shown)
Ans. 33 nm

Qu. What does the data say about its Z Ave (nm)? Entry: CCCCCCCC(=O)N[C@H](C(=O)N[C@@H](C)C(=O)Nc1ccc(CSP2(=O)OC[C@H]3O[C@@H](n4cnc5c(O)ncnc54)[C@H](F)[C@@H]3OP(=O)(SCc3ccc(NC(=O)[C@H](C)NC(=O)[C@@H](NC(=O)CCCCCCC)C(C)C)cc3)OC[C@H]3O[C@@H](n4cnc5c(N)ncnc54)[C@H](F)[C@@H]3O2)cc1)C(C)C (stereo partly shown)
Ans. 184 nm

Qu. # lookup: Z Ave (nm) of CCCCCCCCCCCCCCCC(=O)N[C@H](C(=O)N[C@@H](CCCNC(N)=O)C(=O)Nc1ccc(CSP2(=O)OC[C@H]3O[C@@H](n4cnc5c(N)ncnc54)[C@H](F)[C@@H]3OP(=O)(O)OC[C@H]3O[C@@H](n4cnc5c(O)ncnc54)C[C@@H]3O2)cc1)C(C)C (stereo partly shown)
Ans. 84.3 nm

Qu. Endpoint output: Z Ave (nm) of CCCCCCCC(=O)N[C@H](C(=O)N[C@@H](C)C(=O)Nc1ccc(CSP2(=O)OC[C@H]3O[C@@H](n4cnc5c(N)ncnc54)[C@H](F)[C@@H]3OP(=O)(O)OC[C@H]3O[C@@H](n4cnc5c(O)ncnc54)[C@H](F)[C@@H]3O2)cc1)C(C)C (stereo partly shown) . Value?
Ans. 264.3 nm

Qu. Please report the recorded Z Ave (nm) for CCCCCCCCCCCCCCCC(=O)N[C@H](C(=O)N[C@@H](C)C(=O)Nc1ccc(CSP2(=O)OC[C@H]3O[C@@H](n4cnc5c(N)ncnc54)[C@H](F)[C@@H]3OP(=O)(S)OC[C@H]3O[C@@H](n4cnc5c(O)ncnc54)[C@H](F)[C@@H]3O2)cc1)C(C)C (stereo partly shown) .
Ans. 106.6 nm
